Tested on: procollagen type(I)
Assay: Stimulation of collagen biosynthesis (procollagen type(I) ELISA)
Format: cell-based
Details: Fibroblast; Fibroblasts, 10 μM in serum-free medium, 24 hours; non-treated group taken as 100
QUANTITY KIND: activity at 10 µM (%)
# output: bare number, implied unit %

Exam item: Supply reported activity at 10 µM belonging to this compound: "COc1cc(NC(=O)c2cc(O)cc(O)c2)cc(OC)c1"
Marked response: 116

Exam item: Return value of activity at 10 µM for input "COc1ccc(NC(=O)c2cc(O)cc(O)c2)cc1OC" , no commentary.
Marked response: 115

Exam item: Quickly give me recorded activity at 10 µM for Oc1ccc(C=Cc2cc(O)cc(O)c2)cc1 [Resveratrol, reference compound]
Marked response: 111

Exam item: Report activity at 10 µM for "O=C(Nc1ccccc1O)c1cc(O)cc(O)c1"
Marked response: 121

Exam item: Quick one: give measured activity at 10 µM for "COc1ccc(NC(=O)c2cc(O)cc(O)c2)cc1O"
Marked response: 120

Exam item: # return recorded activity at 10 µM for input "O=C(Nc1ccc(O)cc1)c1cc(O)cc(O)c1"
Marked response: 143

* * *

Test system: procollagen type(I)
Assay: Stimulation of collagen biosynthesis (procollagen type(I) ELISA)
Format: cell-based
Settings: Fibroblast; Fibroblasts, 10 μM in serum-free medium, 24 hours; non-treated group taken as 100
What activity at 10 µM was measured for each of the following?
Respond with a number, then the unit of measure.

Exam item: Specify activity at 10 µM for COc1ccc(NC(=O)c2cc(O)cc(O)c2)cc1 [Ex. 4] and stop.
Marked response: 118%

Exam item: Answer with the recorded activity at 10 µM for the compound listed here: O=C(Nc1cccc(O)c1)c1cc(O)cc(O)c1 [Ex. 3]
Marked response: 122%

Exam item: Supply activity at 10 µM value. Item: COc1cc(NC(=O)c2cc(O)cc(O)c2)cc(OC)c1OC [Ex. 7]
Marked response: 119%

* * *

Tested on: Human keratinocyte HaCaT cell lines
Assay: Anti-oxidative effect using HaCaT model (lipid peroxidation assay kit)
Assay type: cell-based
Conditions: Homo sapiens; HaCaT cells, sample at 10˜4 mol for 24 hours, then t-BHT 4 hours; non-treated group = 100; read-out: Lipid peroxidation (%)
QUANTITY KIND: activity at 100 µM (%)
Please reply with the bare figure in % and do not write the unit itself.

Exam item: Answer with the recorded activity at 100 µM for the compound listed here: COc1cc(NC(=O)c2cc(O)cc(O)c2)cc(OC)c1OC [Ex. 7]
Marked response: 179

Exam item: Give the measured activity at 100 µM for O=C(Nc1ccc(O)cc1)c1cc(O)cc(O)c1 [Ex. 1]
Marked response: 170

Exam item: Provide activity at 100 µM value for the following compound: COc1ccc(NC(=O)c2cc(O)cc(O)c2)cc1OC [Ex. 5]
Marked response: 176

Exam item: Item COc1cc(NC(=O)c2cc(O)cc(O)c2)cc(OC)c1 [Ex. 6] : provide activity at 100 µM
Marked response: 172

Exam item: Query activity at 100 µM for COc1ccc(NC(=O)c2cc(O)cc(O)c2)cc1 [Ex. 4]
Marked response: 186

Exam item: Please indicate activity at 100 µM recorded for COc1ccc(NC(=O)c2cc(O)cc(O)c2)cc1O [Ex. 8]
Marked response: 181

Exam item: Find the measured activity at 100 µM of Oc1ccc(C=Cc2cc(O)cc(O)c2)cc1 [Resveratrol, reference compound] and report it.
Marked response: 178

Exam item: Note activity at 100 µM for the compound shown: O=C(Nc1ccccc1O)c1cc(O)cc(O)c1 [Ex. 2]
Marked response: 180

Exam item: Complete the entry with activity at 100 µM for O=C(Nc1cccc(O)c1)c1cc(O)cc(O)c1 [Ex. 3]
Marked response: 182

* * *

Test system: collagenase
Assay: Effect of inhibiting collagenase expression
Format: cell-based
Conditions: Fibroblast; Human fibroblasts, 10˜4M in serum-free DMEM; non-treated group taken as 100
Please respond with reported activity at 100 µM for every item in the list.
Number only, in %; omit the unit.

Exam item: Provide only the value of recorded activity at 100 µM for "COc1cc(NC(=O)c2cc(O)cc(O)c2)cc(OC)c1"
Marked response: 71

Exam item: Indicate the recorded activity at 100 µM value for this compound: "O=C(Nc1ccccc1O)c1cc(O)cc(O)c1"
Marked response: 69

Exam item: Check the records and state activity at 100 µM for "O=C(Nc1cccc(O)c1)c1cc(O)cc(O)c1"
Marked response: 71

Exam item: Report activity at 100 µM, nothing else, for this compound: "COc1cc(NC(=O)c2cc(O)cc(O)c2)cc(OC)c1OC"
Marked response: 70

Exam item: Fill in activity at 100 µM for record Oc1ccc(C=Cc2cc(O)cc(O)c2)cc1 [Resveratrol, reference compound]
Marked response: 81

Exam item: Note activity at 100 µM for the compound shown: "COc1ccc(NC(=O)c2cc(O)cc(O)c2)cc1OC"
Marked response: 72

Exam item: Entry "COc1ccc(NC(=O)c2cc(O)cc(O)c2)cc1O" needs its activity at 100 µM filled in; supply it.
Marked response: 69

Exam item: Return activity at 100 µM (reported value) for this compound: "O=C(Nc1ccc(O)cc1)c1cc(O)cc(O)c1"
Marked response: 67

Exam item: Report activity at 100 µM, nothing else, for this compound: "COc1ccc(NC(=O)c2cc(O)cc(O)c2)cc1"
Marked response: 74

* * *

Experiment: Thermal stability according to isothermal discoloration test
Assay type: physicochemical
Parameters: key: 1: no discoloration; 2: discoloration into a light yellow color; 3: discoloration into a dark yellow color; 4: discoloration into a dark brown color
Details: 1000 pm in dimethylformaldehyde:ethanol:water=5:3:2, 40° C., 30 days, naked eyes
Protocol: The hydroxybenzamide compounds according to Examples 18 were determined for their thermal stability as compared to resveratrol. The test was performed by dissolving each of the hydroxybenzamide compounds according to Examples 1˜8 into a test solvent (dimethylformaldehyde:ethanol:water=5:3:2) in a concentration of 1000 pm, and by allowing the test samples to be left in an isothermal chamber at 40° C. for a test period of 30, 60 and 90 days. […]
QUANTITY KIND: Discoloration after 30 days
Answer with the value's number alone.

Exam item: State its Discoloration after 30 days: O=C(Nc1ccc(O)cc1)c1cc(O)cc(O)c1 [Ex. 1]
Marked response: 1

Exam item: Answer with reported Discoloration after 30 days of COc1cc(NC(=O)c2cc(O)cc(O)c2)cc(OC)c1 [Ex. 6]
Marked response: 1

Exam item: Look up and report measured Discoloration after 30 days for this entry: O=C(Nc1ccccc1O)c1cc(O)cc(O)c1 [Ex. 2]
Marked response: 1

Exam item: Tell me measured Discoloration after 30 days for COc1ccc(NC(=O)c2cc(O)cc(O)c2)cc1O [Ex. 8] please.
Marked response: 1

Exam item: Quickly give me recorded Discoloration after 30 days for O=C(Nc1cccc(O)c1)c1cc(O)cc(O)c1 [Ex. 3]
Marked response: 1

Exam item: Name the recorded Discoloration after 30 days of the item Oc1ccc(C=Cc2cc(O)cc(O)c2)cc1 [Resveratrol, reference compound] in your answer.
Marked response: 2

Exam item: Indicate the recorded Discoloration after 30 days value for this compound: COc1ccc(NC(=O)c2cc(O)cc(O)c2)cc1 [Ex. 4]
Marked response: 1

Exam item: Provide only the value of recorded Discoloration after 30 days for COc1ccc(NC(=O)c2cc(O)cc(O)c2)cc1OC [Ex. 5]
Marked response: 1

Exam item: For COc1cc(NC(=O)c2cc(O)cc(O)c2)cc(OC)c1OC [Ex. 7] , write its Discoloration after 30 days.
Marked response: 1
